# test details: Toxicity in Swiss albino mouse assessed as mortality at 1.38 mmol/kg, sc
# Type: organism-based
# test conditions: in vivo, read-out: Activity
measurement type: mortality (%)
Enter your answer as a number in %; do not include the unit.

Record CCCC(CCC)C(=O)[O-].[Na+] [VALPROATE SODIUM] . Reported mortality: 0

* * *

Kindly supply the reported Activity values for the records listed here.
# System: Mus musculus
# test details: Hypnotic activity in Swiss albino mouse assessed as righting reflex at 0.75 mmol/kg, ip
# Type: ADME, organism-based
# test conditions: in vivo
Enter your answer as a number in %; do not include the unit.

Record "O=C1CCCN2C(=N1)Sc1cc(Cl)ccc12" . Reported Activity: 0

Record "O=C1CCCN2C=C(Br)SC2=N1" . Reported Activity: 0

Record "O=C1CCCN2C(=N1)Oc1ccc(Cl)cc12" . Reported Activity: 0

Record "S=C1CCCN2C=CSC2=N1" . Reported Activity: 0

Record "S=C1CCCN2C=C(Br)SC2=N1" . Reported Activity: 0

* * *

# test details: Therapeutic index, ratio of LD50 for Swiss albino mouse to ED50 for anticonvulsant activity in Swiss albino mouse
# Type: organism-based
# test conditions: in vivo, read-out: Ratio LD50/ED50
Kindly supply the reported selectivity ratio values for the records listed here.
The answer should be a number; do not append a unit.

Record "S=C1CCCN2C=C(Br)SC2=N1" . Reported selectivity ratio: 1.51

Record "O=C1CCCN2C(=N1)Sc1cc(Cl)ccc12" . Reported selectivity ratio: 1.62

Record "O=C1CCCN2C(=N1)Oc1ccc(Cl)cc12" . Reported selectivity ratio: 2.14

* * *

# System: Mus musculus
# test details: Hypnotic activity in Swiss albino mouse assessed as righting reflex at 1.5 mmol/kg, ip
# Format: ADME, organism-based
# test conditions: in vivo
measurement type: Activity
Reply with a number, then the unit it belongs to.

Record "O=C1CCCN2C=CSC2=N1" . Reported Activity: 0%

Record "O=C1CCCN2C(=N1)Sc1ccccc12" . Reported Activity: 0%

Record "O=C1CCCN2C(=N1)Oc1ccc(Cl)cc12" . Reported Activity: 0%

Record "S=C1CCCN2C=CSC2=N1" . Reported Activity: 0%

Record "O=C1CCCN2C=C(Br)SC2=N1" . Reported Activity: 30%

Record "S=C1CCCN2C=C(Br)SC2=N1" . Reported Activity: 14%

Record "O=C1CCCN2C(=N1)Sc1cc(Cl)ccc12" . Reported Activity: 0%

* * *

# Test system: Mus musculus
# test details: Neurotoxicity in Swiss albino mouse assessed as effect on motor activity at 1.5 mmol/kg, ip after 30 mins
# Type: toxicity, organism-based
# test conditions: in vivo, 0.5 h
measurement type: Activity (%)
Enter your answer as a number in %; do not include the unit.

Record "O=C1CCCN2C(=N1)Sc1cc(Cl)ccc12" . Reported Activity: 33

Record "O=C1CCCN2C(=N1)Sc1ccccc12" . Reported Activity: 0

Record "O=C1CCCN2C=CSC2=N1" . Reported Activity: 0

Record "O=C1CCCN2C=C(Br)SC2=N1" . Reported Activity: 12

Record "O=C1CCCN2C(=N1)Oc1ccc(Cl)cc12" . Reported Activity: 50

Record "S=C1CCCN2C=C(Br)SC2=N1" . Reported Activity: 84

Record "S=C1CCCN2C=CSC2=N1" . Reported Activity: 11

* * *

Kindly supply the reported Activity values for the records listed here.
# Tested on: Mus musculus
# test details: Neurotoxicity in Swiss albino mouse assessed as inability to climb up backwards in a glass tube within 30 seconds at 1.5 mmol/kg, ip measured after 15 and 25 mins by Chimney test
# Format: toxicity, organism-based
# test conditions: in vivo
Enter your answer as a number in %; do not include the unit.

Record "O=C1CCCN2C(=N1)Sc1ccccc12" . Reported Activity: 0

Record "O=C1CCCN2C=CSC2=N1" . Reported Activity: 0

Record "O=C1CCCN2C(=N1)Oc1ccc(Cl)cc12" . Reported Activity: 50

Record "O=C1CCCN2C=C(Br)SC2=N1" . Reported Activity: 80

Record "S=C1CCCN2C=C(Br)SC2=N1" . Reported Activity: 25

Record "S=C1CCCN2C=CSC2=N1" . Reported Activity: 100

Record "O=C1CCCN2C(=N1)Sc1cc(Cl)ccc12" . Reported Activity: 25

* * *

# Test system: Mus musculus
# test details: Neurotoxicity in Swiss albino mouse assessed as inability to climb up backwards in a glass tube within 30 seconds at 0.75 mmol/kg, ip measured after 15 and 25 mins by Chimney test
# Format: toxicity, organism-based
# test conditions: in vivo
Kindly supply the reported Activity values for the records listed here.
Enter your answer as a number in %; do not include the unit.

Record "S=C1CCCN2C=C(Br)SC2=N1" . Reported Activity: 0

Record "S=C1CCCN2C=CSC2=N1" . Reported Activity: 30

Record "O=C1CCCN2C(=N1)Oc1ccc(Cl)cc12" . Reported Activity: 17

Record "O=C1CCCN2C(=N1)Sc1cc(Cl)ccc12" . Reported Activity: 0

Record "O=C1CCCN2C=C(Br)SC2=N1" . Reported Activity: 40

Measured values drawn from ChEMBL document CHEMBL2146421 for this set.
